- test: Particle size and polydispersity index of nanoparticle compositions (Zetasizer Nano ZS)
- Format: physicochemical
- run_parameters: Table 1B; formulated with hEPO mRNA
Cut-off 90 nm on Size: below means Met, at or above means Not met.

Challenge: Dear colleague, could you confirm whether Size of `CCCCCCCCCOC(=O)CCCCCCCN(CCCCCCCC(=O)OC(CCCCCCCC)CCCCCCCC)CCCNC(=S)N(C)C` falls below 90 nm? Thanks.
Response given: Not met

Challenge: Dear colleague, could you confirm whether Size of `CCCCCCCCCOC(=O)CCCCCCCN(CCCCCCCC(=O)OC(CCCCCCCC)CCCCCCCC)CCCNS(C)(=O)=O` falls below 90 nm? Thanks.
Response given: Met

Challenge: Dear colleague, could you confirm whether Size of `CCCCCCCCCOC(=O)CCCCCCCN(CCCCCCCC(=O)OC(CCCCCCCC)CCCCCCCC)CCCN/C(=N/[N+](=O)[O-])NC` falls below 90 nm? Thanks.
Response given: Not met

Challenge: Dear colleague, could you confirm whether Size of CCCCCC=CCC=CCCCCCCCCC(CCCCCCCCC=CCC=CCCCCC)OC(=O)CCCN(C)C (stereo not shown) [MC3, reference compound] falls below 90 nm? Thanks.
Response given: Met

Challenge: Dear colleague, could you confirm whether Size of `CCCCCCCCCOC(=O)CCCCCCCN(CCO)CCCCCCCCCC(=O)OC(CCCCCC)CCCCCC` falls below 90 nm? Thanks.
Response given: Not met

Challenge: Dear colleague, could you confirm whether Size of `CCCCCCCCCOC(=O)CCCCCCCN(CCCCCCCC(=O)OC(CCCCCCCC)CCCCCCCC)CCCC(=O)NC` falls below 90 nm? Thanks.
Response given: Met

====

- test: Particle size and polydispersity index of nanoparticle compositions (Zetasizer Nano ZS)
- Type: physicochemical
- run_parameters: Table 1D; compositions for subcutaneous administration; # formulated with hEPO mRNA
reported_endpoint: Size (nm)
Provide the reading as a plain figure in nm.

Challenge: For the compound CCCCCCCCCC(=O)OCCCCCCCN(CCO)CCCCCCCC(=O)OC(CCCCCCCC)CCCCCCCC [Compound 96] , what Size is on record?
Response given: 82.6

Challenge: For the compound CCCCCCCCCOC(=O)CCCCCCCN(CCO)CCCCCCCOC(=O)C(CCCCCCCC)CCCCCCCC [Compound 30] , what Size is on record?
Response given: 89.8

Challenge: For the compound CCCCCCCCCC(=O)OCCCCCCCN(CCO)CCCCCCCOC(=O)C(CCCCCCCC)CCCCCCCC [Compound 151] , what Size is on record?
Response given: 77.6

Challenge: For the compound CCCCCCCCCOC(=O)CCCCCCCN(CCCCCCCC(=O)OC(CCCCCCCC)CCCCCCCC)CCCNC(=N)N [Compound 207] , what Size is on record?
Response given: 81.4

Challenge: For the compound CCCCCCCCCOC(=O)C(C)CCCCCCN(CCO)CCCCCCCC(=O)OC(CCCCCCCC)CCCCCCCC (stereo not shown) [Compound 164] , what Size is on record?
Response given: 75.7

Challenge: For the compound CCCCCCCCC(CC)OC(=O)CCCCCCCN(CCO)CCCCCCCC(=O)OC(CCCCCCCC)CCCCCCCC (stereo not shown) [Compound 49] , what Size is on record?
Response given: 74.0

Challenge: For the compound CCCCCC=CCC=CCCCCCCCCC(CCCCCCCCC=CCC=CCCCCC)OC(=O)CCCN(C)C (stereo not shown) [MC3, reference compound] , what Size is on record?
Response given: 69.1
